Consider the following molecules and their measured melting point readings.

Below, each entry is followed by its recorded melting point result.
{"columns": ["molecule", "melting point"],
 "data": [
  ["COc1ccc(-c2nc3sccn3c2/C=C/C(=O)c2cccs2)cc1 [Compound 16a]", "169 to 172 °C"],
  ["O=C(/C=C/c1c(-c2ccc(F)cc2)nc2sccn12)c1ccc(-c2ccccc2)cc1 [Compound 13e]", "194 to 196 °C"],
  ["O=C(/C=C/c1c(-c2ccc(F)cc2)nc2sccn12)c1ccc2ccccc2c1 [Compound 12e]", "216 to 218 °C"]
]}

Briefly, melting point measured for COc1ccc(-c2nc3sccn3c2/C=C/C(=O)c2ccc3c(c2)OCO3)cc1 [Compound 11a] : 189 to 191 °C

----------
GI50, KM12, per-entry values.
Return type: number; implicit unit nM.

Below, each entry is followed by its recorded GI50 result.
{"columns": ["molecule", "quantitativeReadout"],
 "data": [
  ["COc1ccc(C(=O)/C=C/c2c(C(F)(F)F)nc3sccn23)cc1OC", 1970],
  ["COc1ccc(-c2nc3sccn3c2/C=C/C(=O)c2cc(OC)c(OC)c(OC)c2)cc1", 2650],
  ["COc1cc(C(=O)/C=C/c2c(-c3ccc(F)cc3)nc3sccn23)cc(OC)c1OC", 2300]
]}

Kindly note: KM12, COc1cc(C(=O)/C=C/c2c(C(F)(F)F)nc3sccn23)cc(OC)c1OC , GI50 value reported: 1470

Kindly note: KM12, COc1cc(C(=O)/C=C/c2c(-c3ccc(F)cc3)nc3sc(C)cn23)cc(OC)c1OC [Compound 19e] , GI50 value reported: 3630

----------
# System: Leukemia cell lines
# assayMethodText: NCI in vitro cytotoxicity, whole panel
# Format: cell-based
# testParameters: Homo sapiens; exposure period of at least 48 hrs; read-out: GI50, range over leukemia cell lines
measurementName: GI50

{"columns": ["molecule", "GI50"],
 "data": [
  ["COc1ccc(C(=O)/C=C/c2c(C(F)(F)F)nc3sccn23)cc1OC", "0.49 to 2.33 µM"]
]}

Read the next record carefully.
Kindly note: Leukemia cell lines, COc1ccc(-c2nc3sccn3c2/C=C/C(=O)c2cc(OC)c(OC)c(OC)c2)cc1 , GI50 value reported: 1.66 to 3.08 µM

----------
GI50, UO-31, per-entry values.
Return type: number; implicit unit nM.

{"columns": ["molecule", "GI50, nM"],
 "data": [
  ["COc1cc(C(=O)/C=C/c2c(-c3ccc(F)cc3)nc3sccn23)cc(OC)c1OC", 2030],
  ["COc1cc(C(=O)/C=C/c2c(C(F)(F)F)nc3sccn23)cc(OC)c1OC", 1870],
  ["COc1ccc(C(=O)/C=C/c2c(C(F)(F)F)nc3sccn23)cc1OC", 8470]
]}

Kindly note: UO-31, COc1cc(C(=O)/C=C/c2c(-c3ccc(F)cc3)nc3sc(C)cn23)cc(OC)c1OC [Compound 19e] , GI50 value reported: 2950

Kindly note: UO-31, COc1ccc(-c2nc3sccn3c2/C=C/C(=O)c2cc(OC)c(OC)c(OC)c2)cc1 , GI50 value reported: 1120

----------
# Tested on: sixty human tumour cell lines
# assayMethodText: NCI in vitro cytotoxicity, all panels
# Assay type: cell-based
# testParameters: human tumour cell lines; read-out: Log10 GI50 mean graph midpoint (MG_MID) (converted)
Consider the following molecules and their measured GI50 readings.
Return type: number; implicit unit nM.

{"columns": ["molecule", "GI50, nM"],
 "data": [
  ["COc1cc(C(=O)/C=C/c2c(C(F)(F)F)nc3sccn23)cc(OC)c1OC", 1910],
  ["COc1cc(C(=O)/C=C/c2c(-c3ccc(F)cc3)nc3sc(C)cn23)cc(OC)c1OC [Compound 19e]", 4790],
  ["COc1ccc(C(=O)/C=C/c2c(C(F)(F)F)nc3sccn23)cc1OC", 3090],
  ["COc1cc(C(=O)/C=C/c2c(-c3ccc(F)cc3)nc3sccn23)cc(OC)c1OC", 2240]
]}

Read the next record carefully.
Briefly, GI50 measured for COc1ccc(-c2nc3sccn3c2/C=C/C(=O)c2cc(OC)c(OC)c(OC)c2)cc1 : 2340
